The reader will find reported Pharmacophore protein distance to PHE_529 values listed item by item below.
targetOrSystem: MASP-2 CCP2-SP (Homo sapiens (Human))
Sequence (O00187 445-686): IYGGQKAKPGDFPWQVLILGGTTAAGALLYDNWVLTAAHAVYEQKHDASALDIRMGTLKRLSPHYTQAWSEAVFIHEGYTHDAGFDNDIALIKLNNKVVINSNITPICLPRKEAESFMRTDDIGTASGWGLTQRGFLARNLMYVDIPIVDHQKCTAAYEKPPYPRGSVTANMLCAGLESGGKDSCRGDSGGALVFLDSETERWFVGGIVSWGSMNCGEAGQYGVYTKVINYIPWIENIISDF
Sequence (O00187 364-432 partner): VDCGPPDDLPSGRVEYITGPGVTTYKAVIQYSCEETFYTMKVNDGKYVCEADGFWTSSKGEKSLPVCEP
assayName: MASP-2 co-crystallization, X-ray crystallography and structure analysis (H-bonds, van der Waals contacts)
conditionParameters: Table A8-6; nearest protein atom in cell to the left

// solved cases for Pharmacophore protein distance to PHE_529 follow
Quick check: Pharmacophore protein distance to PHE_529 of C[C@H](NC(=O)[C@H](N)CCCc1ccccc1)C(=O)NCc1ccc(C(=N)N)cc1.Cl.Cl [1042_1] ? 3.84

What value of measured Pharmacophore protein distance to PHE_529 is listed for C[C@H](NC(=O)[C@H]1Cc2c([nH]c3ccccc23)CN1)C(=O)NCc1ccc(C(=N)N)cc1.Cl.Cl [1097_2] ? 3.02

Which Pharmacophore protein distance to PHE_529 is reported for this compound? C[C@H](NC(=O)C1C[C@@H](c2ccccc2)CCN1)C(=O)NCc1ccc(C(=N)N)cc1 (stereo in doubt) 3.00

Would you kindly share the measured Pharmacophore protein distance to PHE_529 for C[C@H](NC(=O)[C@H]1Cc2c([nH]c3ccccc23)CN1)C(=O)NCc1ccc(C(=N)N)cc1.Cl.Cl [1097_1] ? 2.89

Dear colleague, I am looking for the recorded Pharmacophore protein distance to PHE_529 of the following compound: N=C(N)c1ccc(CNC(=O)[C@@H]2CCN2C(=O)[C@H](NCC(=O)O)C2Cc3ccccc3C2)cc1 2.98

---
I have this compound here, C[C@H](NC(=O)[C@H]1C[C@@H](c2ccccc2)CCN1)C(=O)NCc1cc(Cl)ccc1O.Cl [1078_10] , and I need its recorded Pharmacophore protein distance to PHE_529. 3.08
